Origin of values: a melting point compilation (Tetko et al.; mined from patent text by program, amines drawn as free bases though some values may be those of a salt)

ENDPOINT NAME: melting point

{"columns": ["COMPOUND", "OBSERVED RESULT"],
 "data": [
  ["Cc1cc(C)c(C(=O)P(=O)(Cc2ccccc2)c2ccccc2)c(C)c1 (centres undefined)", "113 to 114 °C"],
  ["CC(=O)NC(Cc1c[nH]c2ccccc12)C(=O)OCc1cc(C)cc(C)c1 (centres undefined)", "145 to 146 °C"],
  ["Cc1cc(Cc2ccccc2)c(NS(=O)(=O)Cc2ccccc2)c(=O)n1CC(=O)O", "> 200 °C"],
  ["CCCCOc1ccc(Cc2nn(-c3ccccc3Cl)c(=O)o2)cc1", "63 °C"],
  ["CCCCCc1cnc(-c2ccc(N=C=S)cc2)nc1", "46 °C"],
  ["COCCCn1c(Cl)nc2ccc(C)cc21", "40 to 44 °C"],
  ["CCOC(=O)N1CCC(n2nnnc2CCC(C)Oc2ccc3nc4[nH]c(=O)[nH]c4cc3c2)CC1 (centres undefined)", "233 to 236 °C"],
  ["COc1ccc(C2(C)Cc3cc(OCc4ccccc4)c(Cl)c(Cl)c3C2=O)cc1 (centres undefined)", "115 to 119 °C"],
  ["COc1cc(OCC(=O)O)c(C)cc1SCc1ccc(-c2ccc(Cl)c(Cl)c2)cc1", "161 to 162 °C"]
]}
